Read-out: X-box binding protein 1 (XBP1), XBP1 (gene 7494)
Assay: LTEA_HepaRG_XBP1: Life Technologies and Expression Analysis (LTEA) Assay for X-box binding protein 1 (XBP1) using HepaRG (AID 2283540)
Conditions: mRNA level, 48 h; actives raise or lower the signal
Method: LTEA_HepaRG is a cell based, multiplexed-readout assay that uses HepaRG, a human liver cell line, with measurements taken at 48 hours after chemical dosing on a 96-well plate.LTEA_HepaRG_XBP1 is one of 102 assay component(s) measured in the LTEA HepaRG cell culture assay. It is a marker of Diseases associated with XBP1 including Major Affective Disorder 7 and Bipolar Disorder.Data from the assay component LTEA_HepaRG_XBP1 was analyzed into 1 endpoint. […]
Active and inactive are the calls of the source. How the source made its calls: active means hit-call score of the fitted dose curve at least 0.9, where 1 is the maximum; inactive means score below 0.9.
Respond using exactly one of the listed classes: 1.0 for active, 0.0 for inactive

Here's what some known entries look like.
q: Query: recorded result category for O=Cc1ccccc1C=O in this test
a: 0.0

q: Query: recorded result category for Cc1ccc(-c2cc(C(F)(F)F)nn2-c2ccc(S(N)(=O)=O)cc2)cc1 in this test
a: 1.0

q: Query: recorded result category for CCCCCCCCCCCCCCOS(=O)(=O)O in this test
a: 0.0

Next:
q: Query: recorded result category for CCc1cc(C2=C(C(=O)O)N(c3ccccc3C(F)(F)F)S(=O)(=O)c3ccccc32)cc2c1OCO2 in this test
a: 0.0

q: Query: recorded result category for O=C(NS(=O)(=O)/C=C/c1cccs1)c1ccc(F)cc1Br in this test
a: 0.0

Sourced from PubChem BioAssay (EPA / NIEHS)
